experiment: yeast display, Sf9 membrane polyspecificity reagent, FACS + sequencing; frameworks hold sequencing errors
assay_endpoint: polyreactivity (PSR sort gate)

>>> test_value("QVQLVESGGGLVQAGGSLRLSCAASGRIFAYYAMGWYRQAPGKERELVAAISGGGGSTYYADSVKGRFTISRDNAKNTVYLQMNSLKPEDTAVYFCAAKSSRYDYYYWGHGTQVTVSS")
"high polyreactivity"
>>> test_value("QVQLVESGGGLVQAGGSLRLSCAACGRIFVRNAMGWYRQAPGKERELVADITNGGSTNYADSVKGRFTISRDNAKNTVYLQMNSLKPEDTAVYYCGAVYYSTDYYFWYDYWGQGTQVTVSS")
"low polyreactivity"
>>> test_value("QVQLGESGGGLVQAGGSLRLSCAASGRIFRYYAMGWYRQAPGKERELVAAISSSGGSTYYADSVKGRFTISRDNAKNTVYLQMNSLKPEDTAVYYCNTVGSVGKKRDYWGQGTQVTVSS")
"high polyreactivity"
>>> test_value("QVQLVESGGGLVQAGGSLRLSCAASGFIFASNVMGWYRQAPGKERELVAAISWSGTRTYYADSVKGRFTISRDNAKNTVYLQMNSLKPEDTAVYYCAARRLYAGHQYDYWGQGTQVTVSS")
"high polyreactivity"
>>> test_value("QVQLVESGGGLVQAGGSLRLSCAASGRIFRWYAMGWYRQAPGKERELVATISSSGRTNYADSVKGRFTISRDNAKNTVYLQMNSLKPEETAVYYCNADGGDWFGYVGMDYWGQGTQVTVSS")
"high polyreactivity"
>>> test_value("EEELVESGGGLVQAGCSLRLSCAATGSTIIWNAMGWYIQAPGKERELVAAITRSGGRTYYADSVKGRFTISRDNAKNTVYLLMNSLIPEDTAVYYCAAVIWGYYYGGKYVYYYPYGYWGQGTQVTVSS")
"high polyreactivity"
>>> test_value("QVQLVESGGGLVQAGGSLRLSCAASGRIFLYYTMGWYRQAPGKERELDAAITRSGGSTYYADSVKGRFTISRDNAKNTDYLQMNSLKPEDTAVYYCNRAYVRYVPMNYWGQGTQVTVSS")
"high polyreactivity"
>>> test_value("QVQLVESGGGLVQAGGSLRLSCAASGTLSSYAMGWYRQAPGKERELVAAISLSGGSTYADSVKGRFTISRDNAKNTVYLQMNSLKPEDTAVYYCAKDWDVDITWSFSIYNYWGQGTQVTVSS")
"low polyreactivity"
>>> test_value("QVQLVESGGGLVQAGGSLRLSCAASGSTIADNAMGWYRQAPGKERELVAAITRSGVRTYYADSVKGRFTISRDNAKYTVYLQMNSLKPDDSAVYYCAKRTYPSRIYDYWGQGTQVTVSS")
"low polyreactivity"
>>> test_value("QVQLVESGGGLVQAGGSLRLICAAAGRIVSYYTMGWYRQAPGKERELVAAISSGGSTNYADSVKGRFTISRDNAKNTVYLQMNSLKPEDTAVYYCAVRCGRRNYDRPAFGYWGQGTQVTVSS")
"high polyreactivity"
>>> test_value("QVQLVESGGGLVQAGGSLRLSCAASGSIFYINAMGCYRQAPGKEREMVAAITSDGSTYYADSVKGRFTISRDNAKNTVYLQMNSLNPEDTAVYYCAADLTSDQYMYYWYWFYSWGQGTQVPVSS")
"low polyreactivity"

----------
test: yeast display, Sf9 membrane polyspecificity reagent, FACS + sequencing; frameworks hold sequencing errors
assay_endpoint: polyreactivity (PSR sort gate)

>>> test_value("QVQLVESGGGLVQAGGSLRLICAASGIIFSSNAMGWSRQAPGKERELVAAISNTGRTNYADSVKGRFTISRDNAKNTVYLQLNSLKPEDTAVYYCAARLSRRYYSYYYWGQGTQVTVSS")
"high polyreactivity"
>>> test_value("QVQLVESGGGLVQAGGSLRLSCAASGLIFKRYAMGWYRQAPGKERELVAAISYSGGSTYYADSVKGRFTISRDNAKNTVYLQMNSLKPEDTAVYYCATVYYHRFDYWGQGTQVTVSS")
"high polyreactivity"
>>> test_value("QVQLVESGLGLVQAGGSLRLSCAHSGSTLVYNDMRWYRQAPGKEREFVAAIRSNDGSTYYADSVNGRFTISRDNAKNTVYLQMNSLTPEDTAVYYCAATFSSAFAYYYWGQGTQVTVSS")
"low polyreactivity"
>>> test_value("QVQHVASGGGIDQAGGSLRLSCAASGFIFSWYALGWYRQAPGKERELVAGISIRGGRTYADSVKGRFTISRDNAKNTVYLQMNSLTPEDTAVYSCATRSYRPYHSLYDYWGQGTQVTVSS")
"high polyreactivity"
>>> test_value("QVQLVESGGGLVQAGGSLRLSCAASGSTFSRNAMGWYRQAPGKERELVAAITSSGGSTYYADSVKGRFTISRDNAKNTVYLQMNSLKPEDTAVYYCAAPRRRHFDYWGQGTQVTVSS")
"high polyreactivity"
>>> test_value("QVQLVESGGGLVQAGGSLRLSCAASGFTFRYYVMGWYRQAPGKERELVAAISQSGGSTYYADSVKGRFTISRDNAKNTVYLQMNSLKPEDTAVYYCAARLVKYFRPYDYWGQGTQVTVSS")
"high polyreactivity"
>>> test_value("QVQLVESGGGLVQAGGSLRLSCAASGFTFTRYAMGWYRQAPGKERELVAAISSSGGSTYYADSVKGRFTISRDNAKNTVYLQMNSLKPEDTAVYYCNKNWPRLYYYWGQGTQVTVSS")
"high polyreactivity"
>>> test_value("QDQLVESGGCLVQAGGSLRLSCAASGSISDSKAMGWYRQAPGKERELVAAISNGGSTNYADSVKGRFTISRDNAKNTVYLQMNSLKPEDTAVYYCARDYDIQNHEYDYWGQGTQVTVSS")
"low polyreactivity"
>>> test_value("QVQLVESGGGLVQAGGSLRLSCAASGSTFRFYAMGWYRQAPGKERELVAAISSRAGSTYYADSVKGRFTISRDNAKNTVYLQMNSLKPEDTAVYYCNARTYSYRGYNYWGQGTQVTVSS")
"high polyreactivity"
>>> test_value("QVQLVESGGGLVQAGGSLRLSCAASGSIFRVYGMGWHRQAPGKERELVAAITWSGGSTYYADSVKGRFTISRDNAKNTVYLQMNSLKPEDTAVSYCAARARPRYYRPPYDYWGQGTQVTVSS")
"high polyreactivity"
>>> test_value("QVQLVESGGGLVQAGGSLRLSCAASGSNFDLNAMGLYRQAPGKERELVAAISSGGGTYYADSVKGRFTIARDNAKNTVYLQMNSLKPEDTAVYYCNRVTRWTYNYWGQGTQVTVSS")
"high polyreactivity"
>>> test_value("QVQLVESGGGLVQAGGSLRLSCAASGSTYQNAMGWYRQAPGKEREFVAAISWSGGSTYYADSVKGRFTISRDNAKNTVYLQMNSLKPEDTAVYYCAAYSYFSPWYDYWGQGTQVTVSS")
"high polyreactivity"
>>> test_value("QVQLVESGGGLVQAGGSLRLSCAASGRIFYWYGMGWYRQAPGKERELVAGITYSASRTYYADSVKGRFTISRDNVKNTVYLQMNCMKPEVTAVYYCAAGRYHRDDGYDYWGQGTQVTVSS")
"low polyreactivity"
>>> test_value("QVQLVESGGGLVQAGGRLRLSCAASGSIFSSYAMGWYRQAPGKERELVAAITNSGVSTYYADSVKGRFTISRDNAKYTVYLQMNSLKPEVTASITALKTVVRLPTVYTPLLNWYYYWGQGTQVTVSS")
"low polyreactivity"
>>> test_value("QVQLVESGGGLVQAGGSIRLSCAASGITFVGNAMGWYRQAPGKERELVASISSGASTNYADSVKGRFTISRDNAKNTVYLQMNSLKPEDTAVYYCAAEGSLEGWDFDSWGQGTQVTVSS")
"low polyreactivity"
>>> test_value("QVQLVESGGGLVQAGGSLRLSCAASGRILYQYAMGWYRQAPGKVRELVASISGRSGRTRYADSVKGRFTISRDIAKNTVSLQMNSLKPEDTAVYYCYAGTSVLKYDYWGQGTQVTVSS")
"low polyreactivity"
>>> test_value("QVQLVESGGGLVQAGGSLRLSCAASGRTFAVYAMGWYRQAPGKERELVAAISYSGDSTYYADSVKGRFTISRDNAKYTVYLQMNSLKPEDTAVYYCAADFLVGLTAVAYEYWGQGTQVTVSS")
"low polyreactivity"
>>> test_value("QFQLVESGGGLVQAGGSLRLSCAASGSIFSVYAMGWYRQAPGKERELVAAITNRGGSTYYADSVKGRFTISRDNAKNTVYLQMNSLKPEDTAVYYCARGPVSYGGLYDYWGQGTQVIVSS")
"low polyreactivity"
>>> test_value("QVQLVESGGGLDQAGGSLRLSCAASGRIFGYYAMGWYRLAPGKERELVAGIRSVGSTNYADSVKGRFTISRDNAKNTVYLQMNSLKPEDTAVNYCASRLWHLSYAGQGGDYWGQGTQVTVSS")
"low polyreactivity"
>>> test_value("QVQLVESVGCLVQAGGSLRLSCAASGRTVVYGYAMGWYRQDPGKERELVAAITSGGSTNYADSVKGRFTISRDNAKNTVYLQMNSLNPEDSAVYYCNAGTVLISTYDYWGQGTQVTVSS")
"high polyreactivity"
>>> test_value("QVQLVESGGGLVQAGGSLRLSCAASGSIFYTNAMGWYRQAPGKERELVASITGGGSTKYADSVKGRFTISRDNAKNTVYLQMNSLKPEDTAVYYCAKRRYWPLDWGQGTQVTVSS")
"high polyreactivity"
